Biological target: IMP-1 (Serratia marcescens)
Construct: made in house
Sequence (P52699 19-246, looked up, species assumed): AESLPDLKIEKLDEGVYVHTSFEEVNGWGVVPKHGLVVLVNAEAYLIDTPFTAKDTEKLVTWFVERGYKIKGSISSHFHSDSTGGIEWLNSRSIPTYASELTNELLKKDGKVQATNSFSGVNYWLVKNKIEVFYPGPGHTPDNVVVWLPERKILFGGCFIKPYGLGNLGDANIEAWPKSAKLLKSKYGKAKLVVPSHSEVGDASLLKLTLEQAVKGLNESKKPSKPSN
Assay: fluorogenic cephalosporin FC5 MBL inhibition assay, IMP-1
Format: biochemical
Conditions: FC5 5 μM, enzyme 20 pM, quadruplicate; read-out: pIC50 IMP-1 (converted)
ENDPOINT_NAME: IC50 (nM)

Example molecules with recorded IC50:
>>> df
                                   molecule  endpoint_name  quantitative_result
0  Nc1ncc(-c2ccn(S(N)(=O)=O)c2C(=O)O)cn1 [compound 11]           IC50                 6.31
1  N=C1NCC(c2ccn(S(N)(=O)=O)c2C(=O)O)CN1 (stereo not drawn) [compound 12]           IC50                 50.1
2  NS(=O)(=O)n1ccc(-c2cn[nH]c2)c1C(=O)O [compound 10]           IC50                 1.26
3  NS(=O)(=O)n1ccc(-c2ccc(F)cc2)c1C(=O)[O-].[Na+] [6b]           IC50                 1.26
4  NS(=O)(=O)n1ccc(-c2ccc(F)cc2)c1C(=O)O [6a]           IC50                0.631
5  Nc1ccc(-c2ccn(S(N)(=O)=O)c2C(=O)[O-])cn1.[Na+] [compound 9]           IC50                    1

P. Nc1nc2ccc(-c3ccn(S(N)(=O)=O)c3C(=O)O)cn2n1 [compound 14]
Q. NC(=O)c1ccc(-c2ccn(S(N)(=O)=O)c2C(=O)O)cc1 [compound 8]
**Q:** For P and Q , which recorded IC50 is lower? Lab log: write the label of the selected item as the result.
**A:** Q
